Field: normalized RNA/DNA level without ligand (log10). Provide a value for each of the variants that follow.
B1: library; a variant is named by its letters at N, in order (parent)
chain: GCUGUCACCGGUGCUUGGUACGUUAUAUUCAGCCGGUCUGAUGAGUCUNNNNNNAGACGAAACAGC

# Variants of: B1
# Assay protocol: normalized RNA/DNA level without ligand (relative to sTRSVctl = 100) (log10 (% of sTRSVctl)); HEK293T overexpressing SLC46A1; higher = less ribozyme self-cleavage, higher mRNA level
# Settings: without (6R,S)-folinic acid; ligand present: no
Answer field: number only, no words.

**Query** Give its normalized RNA/DNA level without ligand (log10) value. Item: GCUGUCACCGGUGCUUGGUACGUUAUAUUCAGCCGGUCUGAUGAGUCUUGUGCGAGACGAAACAGC [UGUGCG]
**Result** 1.66

**Query** Request the reported normalized RNA/DNA level without ligand (log10) associated with GCUGUCACCGGUGCUUGGUACGUUAUAUUCAGCCGGUCUGAUGAGUCUUGUAAGAGACGAAACAGC [UGUAAG]
**Result** 1.67

**Query** For the variant shown here, GCUGUCACCGGUGCUUGGUACGUUAUAUUCAGCCGGUCUGAUGAGUCUGUUAUUAGACGAAACAGC [GUUAUU] , give the reported normalized RNA/DNA level without ligand (log10).
**Result** 2.02

**Query** I'd like to know its normalized RNA/DNA level without ligand (log10). The variant in question is GCUGUCACCGGUGCUUGGUACGUUAUAUUCAGCCGGUCUGAUGAGUCUGUCCAAAGACGAAACAGC [GUCCAA]
**Result** 1.99

**Query** // normalized RNA/DNA level without ligand (log10) lookup, key: GCUGUCACCGGUGCUUGGUACGUUAUAUUCAGCCGGUCUGAUGAGUCUUCCUUCAGACGAAACAGC [UCCUUC]
**Result** 2.08

**Query** Name the recorded normalized RNA/DNA level without ligand (log10) for GCUGUCACCGGUGCUUGGUACGUUAUAUUCAGCCGGUCUGAUGAGUCUGCCAUGAGACGAAACAGC [GCCAUG] .
**Result** 1.98

**Query** For GCUGUCACCGGUGCUUGGUACGUUAUAUUCAGCCGGUCUGAUGAGUCUCUUCUCAGACGAAACAGC [CUUCUC] , what is its reported normalized RNA/DNA level without ligand (log10)?
**Result** 2.05

**Query** Name the reported normalized RNA/DNA level without ligand (log10) value associated with the variant GCUGUCACCGGUGCUUGGUACGUUAUAUUCAGCCGGUCUGAUGAGUCUGUUCCAAGACGAAACAGC [GUUCCA]
**Result** 2.02

**Query** # normalized RNA/DNA level without ligand (log10) lookup, item GCUGUCACCGGUGCUUGGUACGUUAUAUUCAGCCGGUCUGAUGAGUCUGAGGAAAGACGAAACAGC [GAGGAA]
**Result** 1.95

**Query** // returns reported normalized RNA/DNA level without ligand (log10) for input GCUGUCACCGGUGCUUGGUACGUUAUAUUCAGCCGGUCUGAUGAGUCUUGGGAAAGACGAAACAGC [UGGGAA]
**Result** 1.88

**Query** Given the entry GCUGUCACCGGUGCUUGGUACGUUAUAUUCAGCCGGUCUGAUGAGUCUACUUCCAGACGAAACAGC [ACUUCC] , report its measured normalized RNA/DNA level without ligand (log10).
**Result** 2.06

**Query** Suppose we examine the variant GCUGUCACCGGUGCUUGGUACGUUAUAUUCAGCCGGUCUGAUGAGUCUCUUAGCAGACGAAACAGC [CUUAGC] ; what normalized RNA/DNA level without ligand (log10) value has been reported?
**Result** 2.01

**Query** Name the recorded normalized RNA/DNA level without ligand (log10) for GCUGUCACCGGUGCUUGGUACGUUAUAUUCAGCCGGUCUGAUGAGUCUGACUUUAGACGAAACAGC [GACUUU] .
**Result** 1.99

**Query** Would you kindly share the measured normalized RNA/DNA level without ligand (log10) for GCUGUCACCGGUGCUUGGUACGUUAUAUUCAGCCGGUCUGAUGAGUCUCCAGAUAGACGAAACAGC [CCAGAU] ?
**Result** 2

**Query** So what does the record say about normalized RNA/DNA level without ligand (log10) for GCUGUCACCGGUGCUUGGUACGUUAUAUUCAGCCGGUCUGAUGAGUCUUUCCUUAGACGAAACAGC [UUCCUU] ?
**Result** 2.02

**Query** Name the reported normalized RNA/DNA level without ligand (log10) value associated with the variant GCUGUCACCGGUGCUUGGUACGUUAUAUUCAGCCGGUCUGAUGAGUCUUGACGCAGACGAAACAGC [UGACGC]
**Result** 2.02

**Query** If you can, please state the reported normalized RNA/DNA level without ligand (log10) value of GCUGUCACCGGUGCUUGGUACGUUAUAUUCAGCCGGUCUGAUGAGUCUUGUACGAGACGAAACAGC [UGUACG] .
**Result** 1.77

**Query** Look up normalized RNA/DNA level without ligand (log10): GCUGUCACCGGUGCUUGGUACGUUAUAUUCAGCCGGUCUGAUGAGUCUGAGCAUAGACGAAACAGC [GAGCAU]
**Result** 1.98

**Query** Quick check: normalized RNA/DNA level without ligand (log10) of GCUGUCACCGGUGCUUGGUACGUUAUAUUCAGCCGGUCUGAUGAGUCUACUCAUAGACGAAACAGC [ACUCAU] ?
**Result** 2.01

**Query** What value of measured normalized RNA/DNA level without ligand (log10) is listed for GCUGUCACCGGUGCUUGGUACGUUAUAUUCAGCCGGUCUGAUGAGUCUGCCGAAAGACGAAACAGC [GCCGAA] ?
**Result** 2.01

**Query** I have this variant here, GCUGUCACCGGUGCUUGGUACGUUAUAUUCAGCCGGUCUGAUGAGUCUCUCCUGAGACGAAACAGC [CUCCUG] , and I need its recorded normalized RNA/DNA level without ligand (log10).
**Result** 2.07

**Query** Any idea what normalized RNA/DNA level without ligand (log10) was measured for GCUGUCACCGGUGCUUGGUACGUUAUAUUCAGCCGGUCUGAUGAGUCUGUGAGGAGACGAAACAGC [GUGAGG] ?
**Result** 1.87
